So I've got a bunch of molecules here, and I need their %Inh values.
Test system: IGF1R
Details: concentration: 1 μM, replicates: in singlicate; n = 1;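 also: KINOMEscan kinase panel screen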
Write the number in % without appending the unit.

IN: Using the record for `CS(=O)(=O)c1ccc(-c2c(-c3ncn[nH]3)sc(N3CCOCC3)c2C#N)cc1` , state its measured %Inh.
OUT: 7

IN: Using the record for O=C(Nc1ccc2c(c1)OCO2)NC1CCN(c2ccnc(Nc3ccc(F)cc3)n2)C1 (stereo not drawn) , state its measured %Inh.
OUT: 0

IN: Using the record for `O=C(Nc1n[nH]c2nc(-c3nccs3)c(Br)cc12)C1CC1` , state its measured %Inh.
OUT: 0

IN: Using the record for `COc1cc2nccc(Nc3ccc(NC(=O)c4ccc(C)cc4)c(O)c3)c2cc1OC.Cl` , state its measured %Inh.
OUT: 0

IN: Using the record for COc1cc(Nc2nccc(N3CCC(NC(=O)Nc4cc(C)ccc4C)C3)n2)cc(OC)c1OC (stereo not drawn) , state its measured %Inh.
OUT: 15

IN: Using the record for `CC(=O)Nc1nc2cnc(Nc3cc(NC(=O)c4cccc(CCC#N)c4)ccc3C)nc2s1` , state its measured %Inh.
OUT: 0

IN: Using the record for `COC(=O)c1c(-c2ccccc2)c2cc(OC)ccc2c(=O)n1Cc1ccccc1` , state its measured %Inh.
OUT: 0

IN: Using the record for `CS(=O)(=O)c1ccc(-c2nc3n(c2-c2ccncc2)CCC3)cc1` , state its measured %Inh.
OUT: 0

IN: Using the record for `Clc1cc(Cl)cc(Nc2ccnc(Nc3cc(Cl)cc(Cl)c3)n2)c1` , state its measured %Inh.
OUT: 16

---

Tested on: PAK4
Conditions: concentration: 1 μM, replicates: in singlicate; n = 1
quantity_measured: %Inh (%)
Write the number in % without appending the unit.

IN: Lab note: PAK4 assay, enter %Inh for `Cl.NC(=O)c1cccc(Nc2nccc(Nc3ccc(Oc4cccc(Cl)c4)c(Cl)c3)n2)c1` here
OUT: 0

IN: Lab note: PAK4 assay, enter %Inh for `Cc1cc(NCC(c2ccccc2)c2ccccc2)nc(NCc2ccc(C(F)(F)F)cc2)n1` here
OUT: 0

IN: Lab note: PAK4 assay, enter %Inh for `CN(C)CCN(C)C(=O)c1cc(-c2ccncc2)c(-c2ccc(Cl)c(O)c2)o1.Cl.Cl` here
OUT: 0

IN: Lab note: PAK4 assay, enter %Inh for `CS(=O)(=O)c1ccc(-c2c(-c3ncn[nH]3)sc(N3CCOCC3)c2C#N)cc1` here
OUT: 5

IN: Lab note: PAK4 assay, enter %Inh for `Cc1c(Cn2ccn3c(=O)cc(N4CCOCC4)nc23)cccc1C(F)(F)F` here
OUT: 0

IN: Lab note: PAK4 assay, enter %Inh for `COc1cccc(-c2cc(-c3c[nH]nc3-c3ccccn3)ccn2)c1` here
OUT: 9

IN: Lab note: PAK4 assay, enter %Inh for `Cc1c(O)cccc1Nc1ccnc2ccc(C(F)(F)F)cc12.Cl` here
OUT: 0

IN: Lab note: PAK4 assay, enter %Inh for `Cc1csc(-c2nc(Nc3ccncc3)c3ccccc3n2)n1` here
OUT: 9

IN: Lab note: PAK4 assay, enter %Inh for `O=S(=O)(c1ccc(-c2ccnc3[nH]ccc23)cc1)N1CCCC1` here
OUT: 0

IN: Lab note: PAK4 assay, enter %Inh for `Cc1ccc(NC(=O)Nc2cc(C(C)(C)C)nn2-c2ccccc2)cc1` here
OUT: 0

IN: Lab note: PAK4 assay, enter %Inh for `COc1ccc(Nc2nccc(-c3cccc(NC(=O)c4cc5cc(F)ccc5[nH]4)c3)n2)cc1` here
OUT: 22

IN: Lab note: PAK4 assay, enter %Inh for `Fc1cc(Cl)ccc1Nc1ccnc2cc(I)ccc12` here
OUT: 0

IN: Lab note: PAK4 assay, enter %Inh for `O=C1NC(=O)C(N2CCc3ccccc32)=C1c1ccccc1Cl` here
OUT: 0

IN: Lab note: PAK4 assay, enter %Inh for CCCc1ccc(S(=O)(=O)NC2CCN(c3ccnc(Nc4ccc(F)cc4)n3)C2)cc1 (stereo not shown) here
OUT: 0

IN: Lab note: PAK4 assay, enter %Inh for `Nc1ncnc2[nH]c(-c3ccccc3)nc12` here
OUT: 0

IN: Lab note: PAK4 assay, enter %Inh for `Cc1cccc(-c2nc(Nc3cccc(C(N)=O)c3)c3ccccc3n2)n1` here
OUT: 17

---

Test system: YSK1
Construct: gene STK25
Conditions: concentration: 1 μM, replicates: in singlicate; n = 1
quantity_measured: %Inh (%)
Write the number in % without appending the unit.

IN: Using the record for O=C(Nc1ccc2c(c1)OCO2)NC1CCN(c2ccnc(Nc3ccc(F)cc3)n2)C1 (centres unmarked) , state its measured %Inh.
OUT: 0

IN: Using the record for `COC(=O)c1c(-c2ccccc2)c2cc(C(=O)O)ccc2c(=O)n1Cc1ccccc1` , state its measured %Inh.
OUT: 0

IN: Using the record for `COc1ccc(Nc2nccc(-c3cccc(NC(=O)c4cc5cc(F)ccc5[nH]4)c3)n2)cc1` , state its measured %Inh.
OUT: 31

IN: Using the record for `O=C(Nc1ccccc1)Nc1cccc(Oc2ccc3nccn3n2)c1` , state its measured %Inh.
OUT: 0

IN: Using the record for `Cc1ccccc1-n1cnc2c(N)ncnc21` , state its measured %Inh.
OUT: 9

---

So I've got a bunch of compounds here, and I need their %Inh values.
Tested on: RIPK4
Settings: concentration: 1 μM, replicates: in singlicate; n = 1
Write the number in % without appending the unit.

IN: Lab note: RIPK4 assay, enter %Inh for COc1cc2ncn(-c3cc(OCC4CCCO4)c(C(N)=O)s3)c2cc1OC (stereo not drawn) here
OUT: 0

IN: Lab note: RIPK4 assay, enter %Inh for `COc1ccc(Nc2nccc(-c3cccc(NC(=O)c4cc5cc(F)ccc5[nH]4)c3)n2)cc1` here
OUT: 0

IN: Lab note: RIPK4 assay, enter %Inh for `Cn1cncc1-c1ccc2ncnc(Nc3ccc(OCc4ccccc4)cc3)c2c1` here
OUT: 0

IN: Lab note: RIPK4 assay, enter %Inh for `Cl.O=C(Nc1cccc(-c2nn3ncccc3c2-c2ccnc(Nc3cccnc3)n2)c1)c1c(F)cccc1F` here
OUT: 15

IN: Lab note: RIPK4 assay, enter %Inh for `CN(C)CCN(C)C(=O)c1cc(-c2ccncc2)c(-c2ccc(Cl)c(O)c2)o1.Cl.Cl` here
OUT: 14

IN: Lab note: RIPK4 assay, enter %Inh for `Cc1cccc(-c2nc(-c3ccc(S(C)(=O)=O)cc3)sc2-c2ccnc(NCCc3ccccc3)c2)c1` here
OUT: 0

IN: Lab note: RIPK4 assay, enter %Inh for `COC(=O)c1c(-c2ccccc2)c2cc(C(=O)O)ccc2c(=O)n1Cc1ccccc1` here
OUT: 0

IN: Lab note: RIPK4 assay, enter %Inh for `Cc1cc(NCC(c2ccccc2)c2ccccc2)nc(NCc2ccc(C(F)(F)F)cc2)n1` here
OUT: 0

IN: Lab note: RIPK4 assay, enter %Inh for `O=C1NC(=O)C(N2CCc3ccccc32)=C1c1ccccc1Cl` here
OUT: 12

IN: Lab note: RIPK4 assay, enter %Inh for `Nc1nc(-c2nccs2)c(-c2ccnc3ccccc23)s1` here
OUT: 5

IN: Lab note: RIPK4 assay, enter %Inh for `COc1ccc(C2=C(Nc3cccc(C(=O)O)c3)C(=O)NC2=O)cc1` here
OUT: 18

IN: Lab note: RIPK4 assay, enter %Inh for `Cc1cc(N2Cc3ccccc3C2)nc(Nc2ccc(S(=O)(=O)N3CCOCC3)cc2)n1.Cl` here
OUT: 98.9

IN: Lab note: RIPK4 assay, enter %Inh for `Cl.Oc1ccc(-c2nc(-c3ccccc3)[nH]c2-c2ccncc2)cc1` here
OUT: 14

IN: Lab note: RIPK4 assay, enter %Inh for `Fc1cccc(COc2nnc(-c3ccc4c(c3)CCO4)o2)c1` here
OUT: 0

IN: Lab note: RIPK4 assay, enter %Inh for `Cl.c1ccc(-c2n[nH]cc2-c2ccnc(-c3ccc(CN4CCOCC4)cc3)c2)nc1` here
OUT: 0

IN: Lab note: RIPK4 assay, enter %Inh for `CCn1c(-c2cccnc2O)nc2cnccc21` here
OUT: 21

IN: Lab note: RIPK4 assay, enter %Inh for `COc1cc2ncnc(Nc3ccc4nc(-c5ccccc5)[nH]c4c3)c2cc1OC.Cl` here
OUT: 1

IN: Lab note: RIPK4 assay, enter %Inh for `COc1ccccc1-c1ccc2c(NC(=O)C3CC3)n[nH]c2n1` here
OUT: 0

---

Test system: MEK4
Construct: gene MAP2K4
Settings: concentration: 1 μM, replicates: in singlicate; n = 1
So I've got a bunch of molecules here, and I need their %Inh values.
Write the number in % without appending the unit.

IN: Using the record for `CC(C)(C)c1ccc(C(=O)Nc2cn3cc(-c4cccnc4)ccc3n2)cc1` , state its measured %Inh.
OUT: 0

IN: Using the record for `CN1C(=O)C(Nc2ccc(Cl)c(C(=O)O)c2)=C(c2ccc(Cl)cc2)C1=O` , state its measured %Inh.
OUT: 26

IN: Using the record for `Cc1cc(-c2ccc3c(c2)CC[C@@H](N[C@@H](C)c2ccccc2)C3)cnc1N.Cl` , state its measured %Inh.
OUT: 34

IN: Using the record for `COc1ccc(Nc2nccc(NCCNC(=O)Nc3ccccc3F)n2)cc1` , state its measured %Inh.
OUT: 11

IN: Using the record for `Cl.O=C(Nc1cccc(-c2nn3ncccc3c2-c2ccnc(Nc3cccnc3)n2)c1)c1c(F)cccc1F` , state its measured %Inh.
OUT: 40

IN: Using the record for `CC(C)(C)c1ccc(C(=O)Nc2cn3cc(Cl)ccc3n2)cc1` , state its measured %Inh.
OUT: 33

IN: Using the record for `Cc1cccc(-c2nc(Nc3ccncc3)c3ccccc3n2)n1` , state its measured %Inh.
OUT: 0

IN: Using the record for `COc1cc2ncnc(Nc3ccc4nc(-c5ccccc5)[nH]c4c3)c2cc1OC.Cl` , state its measured %Inh.
OUT: 21

IN: Using the record for COc1cccc(NC(=O)NC2CCN(c3ccnc(Nc4ccc(F)cc4)n3)C2)c1 (stereo not drawn) , state its measured %Inh.
OUT: 26
